Provenance of the data: ChEMBL document CHEMBL3526130

experiment: Ratio of drug level in brain to plasma in Sprague-Dawley rat treated with risperidone at 1 mg/kg, sc by LC-MS/MS analysis; type: ADME, organism-based; parameters: dose 1 mg/kg, route subcutaneous; conditions: read-out: BPR
quantity.name: Kp
Answer with a bare number; do not write a unit.

Entry under test: Cc1nc2n(c(=O)c1CCN1CCC(c3noc4cc(F)ccc34)CC1)CCCC2O (stereo unspecified) . Its Kp was 0.07

###

experiment: AUC(0 to infinity) in Sprague-Dawley rat cerebrospinal fluid at 2 mg/kg, sc by LC-MS/MS analysis; format: ADME, organism-based; parameters: time infinity, dose 2 mg/kg, route subcutaneous
quantity.name: AUC(0-inf) (ng·h/mL)
Report only the number, with the unit ng·h/mL understood.

Entry under test: Clc1ccc2c(c1)N=C(N1CCNCC1)c1ccccc1N2 [N-DESMETHYLCLOZAPINE] . Its AUC(0-inf) was 8.91

###

assay: Ratio of drug level in brain to plasma in cynomolgus monkey at 1 mg/kg, sc by LC-MS/MS analysis; format: ADME, organism-based, Macaca fascicularis; set-up: dose 1 mg/kg, route subcutaneous; conditions: brain and plasma, read-out: BPR
quantity.name: Kp
# output: bare number, no unit

# compound CNCc1cc(F)c(Cl)cc1Oc1cccc(OC)c1C ; its Kp = 15

###

test: Unbound fraction in cynomolgus monkey brain treated with risperidone at 0.1 mg/kg, sc by LC-MS/MS analysis; format: ADME, organism-based, Macaca fascicularis; parameters: dose 0.1 mg/kg, route subcutaneous
quantity.name: fraction unbound
Write the number on its own, no unit after it.

Consider Cc1nc2n(c(=O)c1CCN1CCC(c3noc4cc(F)ccc34)CC1)CCCC2O (stereo unspecified) [PALIPERIDONE] . Its measured fraction unbound is 0.105

###

assay: AUC(0 to infinity) in Sprague-Dawley rat brain at 10 mg/kg, sc by LC-MS/MS analysis; type: ADME, organism-based; design: time infinity, dose 10 mg/kg, route subcutaneous
quantity.name: AUC(0-inf) (ng·h/mL)
Give just the numeric value; ng·h/mL need not be written.

Query CN(C)CCCC1(c2ccc(F)cc2)OCc2cc(C#N)ccc21 (racemic) yields AUC(0-inf) of 12900

###

experiment: AUC(0 to infinity) in Sprague-Dawley rat plasma at 3 mg/kg, sc by LC-MS/MS analysis; type: ADME, organism-based; set-up: time infinity, dose 3 mg/kg, route subcutaneous
quantity.name: AUC(0-inf) (ng·h/mL)
# value in ng·h/mL; strip the unit string

NC(=O)N1c2ccccc2C=Cc2ccccc21 [CARBAMAZEPINE]    2280

So for Nc1nc(O)c2ncn(COC(CO)CO)c2n1 , the logged AUC(0-inf) turned out to be 1720

The reported AUC(0-inf) of the compound CCN(CC)CCNC(=O)c1cc(Cl)c(N)cc1OC [METOCLOPRAMIDE] was 367

###

assay: Unbound fraction in Beagle dog brain treated with risperidone at 0.1 mg/kg, sc by LC-MS/MS analysis; format: ADME, organism-based, Canis lupus familiaris; set-up: dose 0.1 mg/kg, route subcutaneous
quantity.name: fraction unbound

# fraction unbound (molecule: Cc1nc2n(c(=O)c1CCN1CCC(c3noc4cc(F)ccc34)CC1)CCCC2O (stereo unspecified) ) is 0.0903

###

test: AUC(0 to 2 hrs) in Sprague-Dawley rat brain at 2 mg/kg, sc by LC-MS/MS analysis; type: ADME, organism-based; design: time < 2 hr, dose 2 mg/kg, route subcutaneous
quantity.name: AUC(0-t) at 2 h (µg·h/mL)
Kindly provide the numeric value in µg·h/mL only, without the unit symbol.

For record Clc1ccc2c(c1)N=C(N1CCNCC1)c1ccccc1N2 the listed AUC(0-t) at 2 h is 0.221
